The following compounds were reported with IC50 values on UniProtKB P04626 in different studies.

Some compounds with recorded IC50:
| compound | result |
| --- | --- |
| Nc1ncnc(Nc2ccc(F)c(Cl)c2)c1/C=N/OCCN1CCOCC1 | 1100 nM |
| COc1cc(N2C(=O)Nc3c(C(=O)Nc4ccc(CN5CCOCC5)cc4)sc4ncc(C#N)c2c34)c(Cl)cc1Cl | > 10000 nM |

Fill in the blank: the reported IC50 of "C=CC(=O)N1CCOc2c1ccc1ncnc(Nc3ccc(Oc4ccc(F)cc4)cc3)c21" is ____.
≤ 50 nM

Which IC50 is listed for "COc1cc(Nc2ncnc(N(C)c3ccc(Cl)cc3)n2)cc(OC)c1OC" ?
995 to 5970 nM

Can you look up the measured IC50 of "CCO/N=C/c1c(N)ncnc1N[C@H](C)c1ccccc1" for me?
3100 nM

// lookup IC50 for "COc1cccc(CCNc2ncnc(Nc3ccc4c(cnn4Cc4ccccc4)c3)n2)c1OC"
> 9340 nM

Entry "Nc1ncnc(Nc2ccc(OCc3cc(F)cc(F)c3)c(Cl)c2)c1/C=N/O" has what IC50?
100 nM

Sample "Cc1cccc(Nc2ncnc(N(C)c3cccc(Cl)c3)n2)c1" — what was its IC50?
1230 to 7370 nM

What measured IC50 goes with "COc1ccc(Nc2ncnc(N(C)c3ccccc3Cl)n2)cc1OC" ?
1080 to 6450 nM

I'd like to know its IC50. The compound in question is "CCc1nc(-c2cccc(CNS(=O)(=O)c3ccccc3)c2)c(-c2ccnc(Nc3ccc(N4CCN(CCS(C)(=O)=O)CC4)c(F)c3)n2)s1"
100 to 1000 nM

For the compound "COc1cc(C)ccc1S(=O)(=O)Nc1cccc(-c2nc(C(C)C)sc2-c2ccnc(Nc3ccc(N4CCN(C(C)=O)CC4)nc3)n2)c1" , what IC50 is on record?
> 1000 nM

Data request, read-out IC50, for "Cc1ccc(-c2n[nH]cc2-c2ccnc(Nc3ccc(CN4CCN(C)CC4)cc3)n2)cc1"
44 nM

# get_value(readout='IC50', item= "COc1cc(Nc2ncnc(Nc3ccc4ccccc4c3)n2)cc(OC)c1OC" )
< 991 nM

GET /values?readout=IC50&item= "CN(C)C/C=C/C(=O)Nc1cc2c(Nc3ccc(F)c(Cl)c3)ncnc2cc1OC[C@]12COC[C@H]1C2"
23 nM

For the compound shown here, "COc1cc(Nc2ncnc(-c3cccnc3Nc3cccc(C(F)(F)F)c3)n2)cc(OC)c1OC" , give the reported IC50.
> 9030 nM

// returns reported IC50 for input C#CCN(Cc1cnc2nc(N)nc(N)c2n1)c1ccc(C(=O)NC(CCC(=O)O)C(=O)O)cc1OC (centres unmarked)
5000 nM

Entry "O=C(O)Cc1cccc(Nc2ncnc(Nc3cccc(Br)c3)n2)c1" has what IC50?
< 999 nM

---

pIC50: −log10 of the molar value.
The following compounds were reported with pIC50 values on UniProtKB P04626 in different studies.

| structure.notation | tested.system | result |
| --- | --- | --- |
| CN1CCN(Cc2cccc(Nc3ncnc(Nc4cccc5ccccc45)n3)c2)CC1 | UniProtKB P04626 | < 4.98 |
| C=CCNc1ncccc1-c1ncnc(Nc2cc(OC)c(OC)c(OC)c2)n1 | UniProtKB P04626 | < 4.94 |
| CCN1CCC(c2nc(COc3cc4ncnc(Nc5ccc(Cl)c(Cl)c5)c4cc3OC)no2)CC1 | UniProtKB P04626 | > 7.30 |

Test system UniProtKB P04626; read-out pIC50; what value for "Cc1cc(Nc2ncnn3ccc(CN4CCC(O)CC4)c23)ccc1Oc1ccn2ncnc2c1" ?
8.15

What reported pIC50 corresponds to "COc1ccc(Nc2ncnc(N(C)CCc3ccccn3)n2)cc1OC" on UniProtKB P04626?
4.91 to 5.02

What pIC50 appears in the records for this compound with UniProtKB P04626? "COc1cccc(Nc2ncnc(-n3c(N)nc4ccccc43)n2)c1"
5.14 to 5.92

API: value(readout= pIC50, system= UniProtKB P04626, query= "CCc1nc(-c2cccc(NS(=O)(=O)c3ccccc3)c2)c(-c2ccnc(Nc3ccc(N4CCN(C(C)=O)CC4)nc3)n2)s1" )
< 6.00

API: value(readout=pIC50, system=UniProtKB P04626) for record "C[C@@H](Nc1ncnc2[nH]c(-c3ccc(CNC(=O)CN4CCN(C)CC4)cc3)cc12)c1ccccc1"
7.94
